These data points were gathered from patent US12162858B2.

# target entity: CSF1R (Homo sapiens)
# Sequence (P07333 20-972): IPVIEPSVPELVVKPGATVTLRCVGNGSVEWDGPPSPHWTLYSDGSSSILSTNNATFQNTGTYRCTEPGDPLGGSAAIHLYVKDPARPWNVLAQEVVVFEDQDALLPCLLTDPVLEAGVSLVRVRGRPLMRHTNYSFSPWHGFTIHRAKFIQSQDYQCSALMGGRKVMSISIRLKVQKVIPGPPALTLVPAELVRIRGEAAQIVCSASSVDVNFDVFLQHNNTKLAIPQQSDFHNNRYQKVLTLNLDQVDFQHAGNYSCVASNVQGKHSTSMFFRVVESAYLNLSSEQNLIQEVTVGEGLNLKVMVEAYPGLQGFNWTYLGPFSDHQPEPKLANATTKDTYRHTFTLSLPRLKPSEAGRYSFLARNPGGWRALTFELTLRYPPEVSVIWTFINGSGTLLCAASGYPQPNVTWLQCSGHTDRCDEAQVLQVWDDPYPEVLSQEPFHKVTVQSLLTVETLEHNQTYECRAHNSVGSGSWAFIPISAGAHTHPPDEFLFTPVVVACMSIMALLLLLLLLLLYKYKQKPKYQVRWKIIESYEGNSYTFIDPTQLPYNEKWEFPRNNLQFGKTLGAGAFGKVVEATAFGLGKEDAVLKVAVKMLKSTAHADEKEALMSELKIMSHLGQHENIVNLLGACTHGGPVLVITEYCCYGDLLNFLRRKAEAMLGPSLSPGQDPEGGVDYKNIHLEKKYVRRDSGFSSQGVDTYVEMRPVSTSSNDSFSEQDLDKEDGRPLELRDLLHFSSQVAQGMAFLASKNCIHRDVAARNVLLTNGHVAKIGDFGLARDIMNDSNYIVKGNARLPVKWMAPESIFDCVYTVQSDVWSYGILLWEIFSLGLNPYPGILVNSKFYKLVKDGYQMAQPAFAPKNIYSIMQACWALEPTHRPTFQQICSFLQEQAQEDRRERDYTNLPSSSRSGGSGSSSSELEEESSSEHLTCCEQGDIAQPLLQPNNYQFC
# experimental protocol: Cellular CSF1R inhibition ELISA (p-CSF1R, M-CSF-induced) using THP-1 cells
Entries and their IC50 values follow.

Some solved entries appear below for comparison.
COc1cc2nccc(Oc3ccc(NC(=O)c4nn(C5CCOC5)cc4OCC(F)(F)F)c(F)c3)c2cc1OC (stereo not shown); ≥ 1 µM
CCn1cc(OCC2CCC2)c(C(=O)Nc2ccc(Oc3ccnc4cc(OC)c(OC)cc34)cn2)n1; < 0.5 µM
COc1cc2nccc(Oc3ccc(NC(=O)c4nn(CCOC5CC5)cc4OCC(F)(F)F)cc3F)c2cc1OC; 0.5 to 1 µM
COc1cc2nccc(Oc3ccc(NC(=O)c4nn(CCOC5CC5)cc4OCC(F)(F)F)c(F)c3)c2cc1OC; 0.5 to 1 µM

Consider the molecule shown here: COc1cc2nccc(Oc3ccc(NC(=O)c4nn(CC(C)C)cc4OCC(F)(F)F)cc3)c2cc1OC What is its recorded IC50? 0.5 to 1 µM

Would you kindly share the measured IC50 for COc1cc2nccc(Oc3ccc(NC(=O)c4nn(CC(C)N)cc4OCC(F)(F)F)nc3)c2cc1OC (stereo not shown) ? 0.5 to 1 µM

# input molecule: COc1cc2nccc(Oc3ccc(NC(=O)c4nn(C5CC5)cc4OCCC(F)(F)F)nn3)c2cc1OC ; wanted: its IC50 ≥ 1 µM

* * *

Measured inhibition at 0.1 µM by item
# target entity: CSF1R (Homo sapiens)
# experimental protocol: KINOMEscan competition binding assay for CSF1R
# Parameters: DNA tag for qPCR (not a peptide); host or cells: E. coli/T7 phage or HEK-293
# condition: @ 0.1 uM; read-out: CSF1R kinase binding activity, Range

Here are 6 compounds together with their reported answers.
COc1cc2nccc(Oc3ccc(NC(=O)c4n[nH]cc4OCC(F)(F)F)nc3)c2cc1OC [Compound 16]; ≥ 80%
COc1cc2nccc(Oc3ccc(NC(=O)c4nn(CCN)cc4OCC(F)(F)F)cc3C)c2cc1OC [Compound 82]; < 50%
COc1cc2nccc(Oc3ccc(NC(=O)c4nn(C5CCCC5)cc4OCC(F)(F)F)cc3F)c2cc1OC [Compound 52]; 50 to 80%
COc1cc2nccc(Oc3ccc(NC(=O)c4nn(CC(C)O)cc4OCC4CCC4)nc3)c2cc1OC (stereo not shown) [Compound 163]; ≥ 80%
COc1cc2nccc(Oc3ccc(NC(=O)c4nn(CCN(C)C)cc4OCC(F)(F)F)nc3)c2cc1OC [Compound 9]; ≥ 80%
COc1cc2nccc(Oc3ccc(NC(=O)c4nn(C5CC5)cc4NCCC(F)(F)F)nc3)c2cc1OC [Compound 142]; ≥ 80%

inhibition at 0.1 µM of CCCn1cc(OCC2COC2)c(C(=O)Nc2ccc(Oc3ccnc4cc(OC)c(OC)cc34)cn2)n1 [Compound 106] on CSF1R (Homo sapiens)? ≥ 80%

* * *

# target entity: Axl (Homo sapiens)
# Sequence (P30530 26-894): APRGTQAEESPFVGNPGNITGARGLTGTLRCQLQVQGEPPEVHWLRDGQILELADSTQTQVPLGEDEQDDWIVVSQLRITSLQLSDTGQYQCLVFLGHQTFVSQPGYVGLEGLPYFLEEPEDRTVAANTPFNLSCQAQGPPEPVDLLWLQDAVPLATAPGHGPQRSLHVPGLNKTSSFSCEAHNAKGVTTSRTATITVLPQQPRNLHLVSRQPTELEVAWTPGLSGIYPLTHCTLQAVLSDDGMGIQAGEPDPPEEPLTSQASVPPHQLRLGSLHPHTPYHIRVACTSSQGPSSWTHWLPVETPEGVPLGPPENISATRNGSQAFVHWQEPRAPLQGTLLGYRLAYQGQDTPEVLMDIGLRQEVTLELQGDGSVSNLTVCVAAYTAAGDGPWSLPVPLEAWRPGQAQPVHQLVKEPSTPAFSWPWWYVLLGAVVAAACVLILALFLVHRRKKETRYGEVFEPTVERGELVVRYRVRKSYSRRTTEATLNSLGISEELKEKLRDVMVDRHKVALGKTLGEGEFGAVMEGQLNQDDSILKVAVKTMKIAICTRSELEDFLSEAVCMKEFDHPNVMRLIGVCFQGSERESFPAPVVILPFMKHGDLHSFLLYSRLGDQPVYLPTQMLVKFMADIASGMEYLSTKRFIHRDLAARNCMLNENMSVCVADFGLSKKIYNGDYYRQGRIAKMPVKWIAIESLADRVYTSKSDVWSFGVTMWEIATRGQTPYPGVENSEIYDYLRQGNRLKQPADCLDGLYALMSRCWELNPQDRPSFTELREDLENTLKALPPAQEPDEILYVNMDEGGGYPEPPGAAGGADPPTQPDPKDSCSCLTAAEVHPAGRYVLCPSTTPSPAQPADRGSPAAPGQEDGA
# experimental protocol: LanthaScreen Eu kinase binding assay for Axl
# condition: read-out: Axl kinase binding activity (Kd)
pKd: −log10 of the molar value.
Below is a list of entries, each paired with its recorded pKd value.

CNCCn1cc(OCC(F)(F)F)c(C(=O)Nc2ccc(Oc3ccnc4cc(OC)c(OC)cc34)c(C)c2)n1; 6.30 to 7.00
COc1cc2nccc(Oc3ccc(NC(=O)c4nn(CCOC5CC5)cc4OCC(F)(F)F)nn3)c2cc1OC; > 7.00
COc1cc2nccc(Oc3ccc(NC(=O)c4nn(CCOC5CC5)cc4OCC(F)(F)F)nc3)c2cc1OC; > 7.00
COc1cc2nccc(Oc3ccc(NC(=O)c4nn(C5CCN(C)C5)cc4OCC(F)(F)F)cc3)c2cc1OC (stereo not drawn); > 7.00
COc1cc2nccc(Oc3ccc(NC(=O)c4nn(CC5CCOC5)cc4OCC(F)(F)F)nc3)c2cc1OC (stereo not drawn); > 7.00
COc1cc2nccc(Oc3ccc(NC(=O)c4nn(CC(C)C)cc4OCC(F)(F)F)nn3)c2cc1OC; > 7.00
COc1cc2nccc(Oc3ccc(NC(=O)c4nn(C)cc4OCC(F)(F)F)c(F)c3)c2cc1OC; > 7.00
COc1cc2nccc(Oc3ccc(NC(=O)c4nn(CC(C)C)cc4OCC(F)(F)F)cc3F)c2cc1OC; > 7.00

Fill in: pKd of COc1cc2nccc(Oc3ccc(NC(=O)c4nn(C[C@H](C)O)cc4OCC(F)(F)F)nc3)c2cc1OC is ___ > 7.00

// query pKd value for entry COc1cc2nccc(Oc3ccc(NC(=O)c4nn(CC5CCCC5)cc4OCC(F)(F)F)nc3)c2cc1OC > 7.00

Which pKd reading was recorded for the compound COc1cc2nccc(Oc3ccc(NC(=O)c4nn(C[C@@H](C)O)cc4OCC(F)(F)F)nc3)c2cc1OC ? > 7.00

Dear colleague, I am looking for the recorded pKd of the following compound: COc1cc2nccc(Oc3ccc(NC(=O)c4nn(C5CCN(C)C5)cc4OCC(F)(F)F)c(F)c3)c2cc1OC (stereo not drawn) > 7.00

Query (compound): CCCn1cc(OCCF)c(C(=O)Nc2ccc(Oc3ccnc4cc(OC)c(OC)cc34)cn2)n1 ; field requested: pKd > 7.00

State the recorded pKd for this entry: COc1cc2nccc(Oc3ccc(NC(=O)c4nn(C5CC5)cc4OCC4CNC4)nn3)c2cc1OC ≤ 6.30

Requested read-out: pKd. Entry: COc1cc2nccc(Oc3ccc(NC(=O)c4nn(C)cc4OCC(F)(F)F)cc3F)c2cc1OC > 7.00

Suppose we examine the compound CNCCn1cc(OCC(F)(F)F)c(C(=O)Nc2ccc(Oc3ccnc4cc(OC)c(OC)cc34)nc2)n1 ; what pKd value has been reported? ≤ 6.30

* * *

# target entity: CSF1R (Homo sapiens)
# experimental protocol: Cellular CSF1R inhibition ELISA (p-CSF1R, M-CSF-induced) using THP-1 cells
pIC50: −log10 of the molar value.
Some compounds, each annotated with its measured pIC50.

Previously resolved entries follow.
COc1cc2nccc(Oc3ccc(NC(=O)c4sc(C5CC5)cc4OCC(F)(F)F)nc3)c2cc1OC; > 6.30
COc1cc2nccc(Oc3ccc(NC(=O)c4nn(CCO)cc4OCC(F)(F)F)cc3C)c2cc1OC; > 6.30
COc1cc2nccc(Oc3ccc(NC(=O)c4nn(C5CCNC5)cc4OCC(F)(F)F)nn3)c2cc1OC (stereo not shown); ≤ 6.00
COc1cc2nccc(Oc3ccc(NC(=O)c4nn(CCO)cc4OCC(F)(F)F)cc3)c2cc1OC; > 6.30

Provide value of pIC50 for this record tested with CSF1R (Homo sapiens): COc1cc2nccc(Oc3ccc(NC(=O)c4nn(CCN)cc4OCC(F)(F)F)cc3F)c2cc1OC ≤ 6.00

Test system CSF1R (Homo sapiens); read-out pIC50; what value for CCCn1cc(OCC2CCOCC2)c(C(=O)Nc2ccc(Oc3ccnc4cc(OC)c(OC)cc34)cn2)n1 ? ≤ 6.00

Query the reported pIC50 for CSF1R (Homo sapiens); item: CCCn1cc(OCC(F)(F)F)c(C(=O)Nc2ccc(Oc3ccnc4cc(OC)c(OC)cc34)cc2F)n1 6.00 to 6.30

* * *

# target entity: CSF1R (Homo sapiens)
# experimental protocol: Cellular CSF1R inhibition ELISA (p-CSF1R, M-CSF-induced) using THP-1 cells
# Type: cell-based
# Set-up: THP-1 cells act as a model for human monocytes; endogenous in cells; host or cells: THP-1
# Description: The normal proto-oncogene c-fms encodes the macrophage growth factor (M-CSF, also known as CSF1) receptor involved in growth, survival, and differentiation along the monocyte-macrophage lineage. THP-1 cells act as a model for human monocytes. It confirms that an increased phosphorylation of CSF1R (p-CSF1R) can be observed, when induced by CSF1R ligand, CSF1. The THP-1 cells should be maintained from 5×10^5 to 1×10^6 cells/ml in the cell culture flask. […]
measurement name: IC50

These solved cases illustrate the format of a correct answer.
COc1cc2nccc(Oc3ccc(NC(=O)c4nn(CC5CCC5)cc4OCC(F)(F)F)nc3)c2cc1OC; < 500 nM
COc1cc2nccc(Oc3ccc(NC(=O)c4nn(CC5CC5)cc4OCC(F)(F)F)nc3)c2cc1OC; < 500 nM
COc1cc2nccc(Oc3ccc(NC(=O)c4nn(C5CC5)cc4OCC4CCC4)nc3)c2cc1OC; 500 to 1000 nM
COc1cc2nccc(Oc3ccc(NC(=O)c4nn(CC(C)O)cc4OCC4CN(C)C4)nc3)c2cc1OC (stereo not shown); ≥ 1000 nM
COc1cc2nccc(Oc3ccc(NC(=O)c4n[nH]cc4OCC(F)(F)F)nc3)c2cc1OC; < 500 nM

Consider the compound COc1cc2nccc(Oc3ccc(NC(=O)c4nn(CCC(F)(F)F)cc4OCC4CCC4)nc3)c2cc1OC and give its measured IC50. ≥ 1000 nM

Endpoint output: IC50 of COc1cc2nccc(Oc3ccc(NC(=O)c4nn(C5CCCCC5)cc4OCC(F)(F)F)nc3)c2cc1OC . Value? < 500 nM
